assayed target: PSG (PSD-95)
procedure text: FP displacement (competition) of FITC-15 AA CRIPT by library peptide, IC50 and Ki
details: read-out: Ki (µM), PSG; FP displacement of FITC-15 AA CRIPT probe by acetylated PSD library peptide
metric name: Ki

{"structure as smiles": "CSCC[C@H](NC(=O)[C@H](CO)NC(=O)[C@H](Cc1ccc(O)cc1)NC(=O)[C@H](CC(C)C)NC(=O)[C@H](Cc1ccc(O)cc1)NC(=O)[C@H](Cc1ccc(O)cc1)NC(=O)[C@H](Cc1ccccc1)NC(=O)[C@H](Cc1ccc(O)cc1)NC(C)=O)C(=O)N[C@H](C(=O)N[C@@H](Cc1ccc(O)cc1)C(=O)N[C@H](C(=O)N[C@@H](CC(C)C)C(=O)N[C@H](C(=O)N[C@@H](CO)C(=O)N[C@@H](Cc1ccccc1)C(=O)O)C(C)C)[C@@H](C)O)C(C)C", "assay result": "888 µM"}

* * *

assayed target: PSG G335A (PSD-95)
procedure text: FP displacement (competition) of FITC-15 AA CRIPT by library peptide, IC50 and Ki
details: read-out: IC50 (µM), PSG G335A; FP displacement of FITC-15 AA CRIPT probe by acetylated PSD library peptide
Reported IC50 values are given for each entry in this list.

{"compound": "CSCC[C@H](NC(=O)[C@H](CCC(N)=O)NC(=O)[C@H](CC(=O)O)NC(=O)[C@H](Cc1ccc(O)cc1)NC(=O)[C@H](CC(=O)O)NC(=O)[C@@H]1CCCN1C(=O)[C@H](CO)NC(=O)[C@H](CCCCN)NC(=O)[C@H](CC(C)C)NC(=O)[C@H](Cc1ccc(O)cc1)NC(C)=O)C(=O)N[C@@H](CO)C(=O)N[C@@H](CO)C(=O)N[C@@H](CO)C(=O)N1CCC[C@H]1C(=O)N[C@@H](CS)C(=O)O", "IC50 [µM]": 2540}
{"compound": "CC[C@H](C)[C@H](NC(=O)[C@H](CC(C)C)NC(=O)[C@H](C)NC(=O)[C@@H](NC(=O)[C@H](C)NC(=O)[C@H](Cc1ccc(O)cc1)NC(C)=O)C(C)C)C(=O)N[C@@H](C)C(=O)N[C@@H](Cc1ccc(O)cc1)C(=O)N[C@@H](CC(C)C)C(=O)N[C@@H](CO)C(=O)N[C@@H](CCCCN)C(=O)N[C@@H](CC(N)=O)C(=O)N[C@@H](CC(N)=O)C(=O)N[C@@H](Cc1c[nH]cn1)C(=O)N[C@@H](CC(C)C)C(=O)O [SYNG1]", "IC50 [µM]": 663}
{"compound": "CC(=O)N[C@@H](Cc1ccc(O)cc1)C(=O)N[C@H](C(=O)N[C@@H](CCC(=O)O)C(=O)N[C@@H](CO)C(=O)N[C@@H](CCCCN)C(=O)N[C@@H](CCCCN)C(=O)N[C@@H](Cc1c[nH]cn1)C(=O)NCC(=O)N[C@@H](CCCNC(=N)N)C(=O)N[C@@H](Cc1c[nH]c2ccccc12)C(=O)N[C@@H](CCCCN)C(=O)N[C@@H](CC(C)C)C(=O)N[C@@H](Cc1c[nH]c2ccccc12)C(=O)N[C@@H](Cc1ccccc1)C(=O)N[C@@H](CC(C)C)C(=O)O)[C@@H](C)O", "IC50 [µM]": 1230}
{"compound": "CC[C@H](C)[C@H](NC(=O)[C@H](CC(=O)O)NC(=O)[C@H](CCC(N)=O)NC(=O)CNC(=O)[C@@H](NC(=O)[C@H](CC(C)C)NC(=O)[C@@H]1CCCN1C(=O)[C@H](Cc1ccc(O)cc1)NC(C)=O)C(C)C)C(=O)N[C@H](C(=O)N[C@@H](CC(=O)O)C(=O)N[C@@H](CC(C)C)C(=O)N[C@@H](CCC(N)=O)C(=O)N[C@H](C(=O)N[C@@H](CCC(=O)O)C(=O)N[C@H](C(=O)O)C(C)C)[C@@H](C)O)[C@@H](C)CC", "IC50 [µM]": 245}

src = paper PMC9490041
